Recorded HA (nM), 10% cyno serum, IC50 for the following binders
target: cynomolgus complement C3b protein (cynomolgus monkey (Macaca fascicularis)); experiment: cell-based or functional assay

The following binders have reported results that may help.
MOR09398 Fab (Fab, V domains shown, also called Fab 9398) VH: QVQLVESGGGLVQPGGSLRLSCAASGFTFSSYWMTWVRQAPGKGLEWVSSIKIKPDGYAASVKGRFTISRDNSKNTLYLQMNSLRAEDTAVYYCARLFYQYFARMDYWGQGTLVTVSS VL: DIQMTQSPSSLSASVGDRVTITCRASQDISNYLNWYQQKPGKAPKLLIYAASNLQSGVPSRFSGSGSGTDFTLTISSLQPEDFATYYCQQWDSFSPTFGQGTKVEIKR    86 nM
MOR09397 Fab (Fab, V domains shown, also called Fab 9397) VH: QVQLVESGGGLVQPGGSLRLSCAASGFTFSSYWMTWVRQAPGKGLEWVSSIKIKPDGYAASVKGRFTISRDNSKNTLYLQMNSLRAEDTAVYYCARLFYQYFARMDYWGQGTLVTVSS VL: DIQMTQSPSSLSASVGDRVTITCRASQDISNYLNWYQQKPGKAPKLLIYAASNLQSGVPSRFSGSGSGTDFTLTISSLQPEDFATYYCQQHDTFRPTFGQGTKVEIKR    59 nM
MOR09124 Fab (Fab, V domains shown, HCDR2-matured derivative of parental MOR08305) VH: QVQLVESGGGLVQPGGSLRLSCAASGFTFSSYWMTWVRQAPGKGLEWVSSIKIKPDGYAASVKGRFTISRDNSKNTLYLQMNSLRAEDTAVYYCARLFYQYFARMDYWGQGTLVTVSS VL: DIQMTQSPSSLSASVGDRVTITCRASQDISNYLNWYQQKPGKAPKLLIYAASNLQSGVPSRFSGSGSGTDFTLTISSLQPEDFATYYCQQYDSYSPTFGQGTKVEIKR    101 nM

Please turn your attention to the following entry.
# input Identify measured HA (nM), 10% cyno serum, IC50 associated with MOR09373 Fab (Fab, V domains shown, also called Fab 9373) VH: QVQLVQSGAEVKKPGASVKVSCKASGYTFTSYSMHWVRQAPGQGLEWMGLINPYNGNTHYAQKFQGRVTMTRDTSISTAYMELSSLRSEDTAVYYCARMLRFDVWGQGTLVTVSS VL: DIALTQPASVSGSPGQSITISCTGTSSDGGGYNYVSWYQQHPGKAPKLMIYGVSNRPSGVSNRFSGSKSGNTASLTISGLQAEDEADYYCQTYTRYSDSPVFGGGTKLTVLG
# output 62 nM
